Target: human sputum elastase (HSE) (Homo sapiens)
Construct: HSE was obtained from Elastin Products Company Inc., Mo., U.S.A; purchased Elastin Products Company Inc; host or cells: human sputum (from the enzyme's name)
Sequence (P08246 30-267): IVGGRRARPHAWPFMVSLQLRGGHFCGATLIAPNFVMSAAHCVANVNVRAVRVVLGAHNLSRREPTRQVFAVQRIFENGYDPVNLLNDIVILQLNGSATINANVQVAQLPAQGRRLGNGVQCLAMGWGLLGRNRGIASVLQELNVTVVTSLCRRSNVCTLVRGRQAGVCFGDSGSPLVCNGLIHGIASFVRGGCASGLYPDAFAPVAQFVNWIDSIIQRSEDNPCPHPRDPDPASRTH
Assay: Protease inhibition assay (in vitro), human sputum elastase
Assay type: biochemical
Conditions: substrate methoxysuccinyl-(Ala)2-Pro-Val-p-nitroanilide, 30 min, room temperature, pH 7.5
Let's look at some compounds and their measured IC50.
Measure: IC50 (nM)

Compound: CC(C)C(NC(=O)[C@@H]1CCCN1C(=O)[C@@H](NC(=O)c1ccc(C(=O)NCC(=O)O)cc1)C(C)C)C(=O)C(F)(F)F (mixture of isomers) [Example 19]
Assayed system: human sputum elastase (HSE) (Homo sapiens)
Measure: IC50
Numeric readout: 680
//
Compound: CC(C)C(NC(=O)[C@@H]1CCCN1C(=O)[C@@H](NC(=O)c1ccc(C(=O)NCC(=O)O)cc1)C(C)C)C(=O)C(F)(F)F (single isomer, unassigned) [Example 16]
Assayed system: human sputum elastase (HSE) (Homo sapiens)
Measure: IC50
Numeric readout: 7100
//
Compound: CC(C)C(NC(=O)[C@@H]1CCCN1C(=O)[C@@H](NC(=O)c1ccc(C(=O)NCc2ccc(N)cc2)cc1)C(C)C)C(=O)C(F)(F)F (mixture of isomers)
Assayed system: human sputum elastase (HSE) (Homo sapiens)
Measure: IC50
Numeric readout: 610
//
Compound: CC(C)C(NC(=O)[C@@H]1CCCN1C(=O)[C@@H](NC(=O)c1ccc(C(=O)NCCCC(=O)O)cc1)C(C)C)C(=O)C(F)(F)F (mixture of isomers)
Assayed system: human sputum elastase (HSE) (Homo sapiens)
Measure: IC50
Numeric readout: 890
//
Compound: CC(C)C(NC(=O)[C@@H]1CCCN1C(=O)[C@@H](NC(=O)c1ccc(C(=O)NCC(=O)O)cc1)C(C)C)C(=O)C(F)(F)F (single isomer, unassigned) [Example 15]
Assayed system: human sputum elastase (HSE) (Homo sapiens)
Measure: IC50
Numeric readout: 610

* * *

target: porcine pancreas elastase (Type IV) (Sus scrofa); construct: purchased Sigma Chemicals Co; host or cells: porcine pancreas (from the enzyme's name); test: Protease inhibition assay (in vitro), porcine pancreas elastase; type: biochemical; settings: substrate N-succinyl-(Ala)3-p-nitroanilide, enzyme 5 μg/ml final; read-out: IC50 Porcine pancreas elastase
Sequence (P00772 27-266): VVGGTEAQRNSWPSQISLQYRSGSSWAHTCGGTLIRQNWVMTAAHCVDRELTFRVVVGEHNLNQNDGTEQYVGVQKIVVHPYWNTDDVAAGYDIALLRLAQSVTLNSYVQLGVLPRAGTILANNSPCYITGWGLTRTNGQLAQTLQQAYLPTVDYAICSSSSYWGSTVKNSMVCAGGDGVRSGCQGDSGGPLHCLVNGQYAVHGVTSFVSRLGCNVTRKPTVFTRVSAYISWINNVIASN

Molecule: CC(C)C(NC(=O)CN(C(=O)[C@@H](NC(=O)c1ccc(C(=O)NCCN2CCOCC2)cc1)C(C)C)C1Cc2ccccc2C1)C(=O)C(F)(F)F (mixture of isomers)
Assayed system: porcine pancreas elastase (Type IV) (Sus scrofa)
IC50 / µM: 19

Molecule: CC(C)C(NC(=O)[C@@H]1CCCN1C(=O)[C@@H](NC(=O)c1ccc(C(=O)NCCN2CCOCC2)cc1)C(C)C)C(=O)C(F)(F)F.Cl (mixture of isomers) [Example 21, hydrochloride]
Assayed system: porcine pancreas elastase (Type IV) (Sus scrofa)
IC50 / µM: 3.7

Molecule: CC(C)C(NC(=O)[C@@H]1CCCN1C(=O)[C@@H](NC(=O)Nc1ccc(C(=O)NCC(=O)OCc2ccccc2)cc1)C(C)C)C(=O)C(F)(F)F (mixture of isomers)
Assayed system: porcine pancreas elastase (Type IV) (Sus scrofa)
IC50 / µM: 4.9

* * *

The following compounds are shown together with reported IC50 values.
Biological target: human sputum elastase (HSE) (Homo sapiens, UniProt P08246)
Sequence (P08246 30-267): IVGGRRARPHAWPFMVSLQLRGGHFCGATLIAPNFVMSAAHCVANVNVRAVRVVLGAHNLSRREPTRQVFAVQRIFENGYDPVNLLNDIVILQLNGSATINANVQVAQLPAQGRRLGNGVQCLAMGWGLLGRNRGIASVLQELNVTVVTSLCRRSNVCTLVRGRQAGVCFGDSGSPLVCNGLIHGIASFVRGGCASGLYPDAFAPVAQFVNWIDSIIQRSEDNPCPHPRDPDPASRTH

Compound: CC(C)C(NC(=O)[C@@H]1CCCN1C(=O)[C@@H](NC(=O)c1ccc(C(=O)NCC(=O)OCc2ccccc2)cc1)C(C)C)C(=O)C(F)(F)F (mixture of isomers) [Example 1]
IC50, nM: 450
//
Compound: CC(C)C(NC(=O)[C@@H]1CCCN1C(=O)[C@@H](NC(=O)c1ccc(C(=O)NCC(=O)O)cc1)C(C)C)C(=O)C(F)(F)F (mixture of isomers) [Example 13]
IC50, nM: 720
//
Compound: CC(C)C(NC(=O)[C@@H]1CCCN1C(=O)[C@@H](NC(=O)c1ccc(C(=O)NCCN2CCOCC2)cc1)C(C)C)C(=O)C(F)(F)F.Cl (mixture of isomers) [Example 21, hydrochloride]
IC50, nM: 1200

* * *

Form field: IC50 (one value per entry).
Target protein (sequence): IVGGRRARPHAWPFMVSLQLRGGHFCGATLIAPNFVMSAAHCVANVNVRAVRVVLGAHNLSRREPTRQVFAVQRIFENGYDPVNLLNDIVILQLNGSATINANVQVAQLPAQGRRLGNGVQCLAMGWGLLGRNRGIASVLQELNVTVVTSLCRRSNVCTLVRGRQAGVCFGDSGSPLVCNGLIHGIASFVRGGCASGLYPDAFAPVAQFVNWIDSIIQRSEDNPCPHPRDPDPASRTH

Compound: CC(C)C(NC(=O)[C@@H]1CCCN1C(=O)[C@@H](NC(=O)Nc1ccc(C(=O)NCC(=O)OCc2ccccc2)cc1)C(C)C)C(=O)C(F)(F)F (mixture of isomers) [Example 22]
IC50: 0.68 µM
--
Compound: CC(C)C(NC(=O)[C@@H]1CCCN1C(=O)[C@@H](NC(=O)c1ccc(C(=O)N[C@@H](CCC(=O)O)C(=O)O)cc1)C(C)C)C(=O)C(F)(F)F (mixture of isomers) [Example 17]
IC50: 1.1 µM
--
Compound: CC(C)C(NC(=O)CN(C(=O)[C@@H](NC(=O)c1ccc(C(=O)NCCN2CCOCC2)cc1)C(C)C)C1Cc2ccccc2C1)C(=O)C(F)(F)F (mixture of isomers) [Example 29]
IC50: 2.4 µM
--
Compound: CC(C)C(NC(=O)[C@@H]1CCCN1C(=O)[C@@H](NC(=O)c1ccc(C(=O)NCc2ccc([N+](=O)[O-])cc2)cc1)C(C)C)C(=O)C(F)(F)F (mixture of isomers) [Example 6]
IC50: 0.43 µM
--
Compound: CC(C)C(NC(=O)CN(C(=O)[C@@H](NC(=O)c1ccc(C(=O)NCC(=O)O)cc1)C(C)C)C1Cc2ccccc2C1)C(=O)C(F)(F)F (mixture of isomers) [Example 27]
IC50: 2.4 µM

* * *

tested on: human sputum elastase-induced lung hemorrhage in hamsters; assay: Elastase-induced pulmonary damage (lung hemorrhage) in hamsters; format: in vivo, hamster; conditions: 100 μg/site intratracheal, 5 min predose; BAL hemoglobin 3 h after elastase
Lab note: compare Hemorrhage (OD541 nm) with 0.3 OD541 nm, writing 1 (yes) if less and 0 (no) if equal or more.

Compound: CC(C)C(NC(=O)CN(C(=O)[C@@H](NC(=O)c1ccc(C(=O)NCC(=O)O)cc1)C(C)C)C1Cc2ccccc2C1)C(=O)C(F)(F)F (mixture of isomers)
Label: 0 (no)

Compound: CC(C)C(NC(=O)[C@@H]1CCCN1C(=O)[C@@H](NC(=O)c1ccc(C(=O)NCC(=O)O)cc1)C(C)C)C(=O)C(F)(F)F (mixture of isomers) [Example 13]
Label: 0 (no)

Compound: CC(C)C(NC(=O)[C@@H]1CCCN1C(=O)[C@@H](NC(=O)c1ccc(C(=O)NCC(=O)O)cc1)C(C)C)C(=O)C(F)(F)F (mixture of isomers) [Example 19]
Label: 1 (yes)

Compound: CC(C)C(NC(=O)[C@@H]1CCCN1C(=O)[C@@H](NC(=O)c1ccc(C(=O)NCCN2CCOCC2)cc1)C(C)C)C(=O)C(F)(F)F.Cl (mixture of isomers)
Label: 0 (no)

Compound: CC(C)C(NC(=O)[C@@H]1CCCN1C(=O)[C@@H](NC(=O)c1ccc(C(=O)NCCCC(=O)O)cc1)C(C)C)C(=O)C(F)(F)F (mixture of isomers)
Label: 1 (yes)

Compound: CC(C)C(NC(=O)CN(C(=O)[C@@H](NC(=O)c1ccc(C(=O)NCCN2CCOCC2)cc1)C(C)C)C1Cc2ccccc2C1)C(=O)C(F)(F)F (mixture of isomers)
Label: 0 (no)

* * *

target: porcine pancreas elastase (Type IV) (Sus scrofa); construct: purchased Sigma Chemicals Co; host or cells: porcine pancreas (from the enzyme's name); assay: Protease inhibition assay (in vitro), porcine pancreas elastase; assay type: biochemical; conditions: substrate N-succinyl-(Ala)3-p-nitroanilide, enzyme 5 μg/ml final; read-out: IC50 Porcine pancreas elastase

Compound: CC(C)C(NC(=O)[C@@H]1CCCN1C(=O)[C@@H](NC(=O)c1ccc(C(=O)N[C@@H](CCC(=O)OCc2ccccc2)C(=O)OCc2ccccc2)cc1)C(C)C)C(=O)C(F)(F)F (mixture of isomers)
Value unit: µM
IC50: 310
--
Compound: CC(C)C(NC(=O)[C@@H]1CCCN1C(=O)[C@@H](NC(=O)c1ccc(C(=O)Nc2ccc(Cl)cc2)cc1)C(C)C)C(=O)C(F)(F)F (mixture of isomers)
Value unit: µM
IC50: 3.8
--
Compound: CC(C)C(NC(=O)[C@@H]1CCCN1C(=O)[C@@H](NC(=O)c1ccc(C(=O)NCc2ccc([N+](=O)[O-])cc2)cc1)C(C)C)C(=O)C(F)(F)F (mixture of isomers)
Value unit: µM
IC50: 6.9
